- SYSTEM: Hck (UniProt P08631)
- Sequence (P08631 whole entry, looked up): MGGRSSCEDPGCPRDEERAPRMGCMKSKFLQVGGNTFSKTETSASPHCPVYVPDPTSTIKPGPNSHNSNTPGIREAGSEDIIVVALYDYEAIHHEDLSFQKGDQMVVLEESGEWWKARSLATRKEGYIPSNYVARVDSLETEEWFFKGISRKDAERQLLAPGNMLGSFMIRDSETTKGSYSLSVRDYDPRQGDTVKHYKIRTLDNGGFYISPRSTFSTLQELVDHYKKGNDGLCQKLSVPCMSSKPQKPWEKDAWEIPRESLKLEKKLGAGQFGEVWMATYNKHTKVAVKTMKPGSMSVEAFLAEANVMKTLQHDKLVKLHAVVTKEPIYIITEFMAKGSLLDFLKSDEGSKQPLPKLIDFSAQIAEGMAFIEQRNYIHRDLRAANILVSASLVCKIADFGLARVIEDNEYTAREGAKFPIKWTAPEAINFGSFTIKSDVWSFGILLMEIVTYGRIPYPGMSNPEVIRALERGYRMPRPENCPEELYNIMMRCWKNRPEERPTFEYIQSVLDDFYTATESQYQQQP
- EXPERIMENTAL_DETAILS: phosphorylation enrichment, bacterial display (enrichment ratio); higher = better substrate or ligand; peptides without Tyr show the background;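 note: 11-residue human phosphosite peptides and single-mutation variants displayed on the E. coli surface, counted by deep sequencing, each peptide's frequency after selection divided by its frequency in the unselected input library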;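 note: frequency after pTyr selection over input frequency; kinase dosed for 20-30% of maximal phosphorylation in three min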
Binary classification by phosphorylation enrichment, with 0.7 as an inclusive lower bound for label 1; all other cases are label 0.

# example entries with known answers
>  <SEQUENCE_INPUT>
MPQNEYIELHC [NSA2_Y6_R11C]

>  <SYSTEM>
Hck (UniProt P08631)

>  <CLASS_NAME>
label 0

$$$$
>  <SEQUENCE_INPUT>
PFADPYFDFEI [ZC3H18_Y371_YF]

>  <SYSTEM>
Hck (UniProt P08631)

>  <CLASS_NAME>
label 0

$$$$
>  <SEQUENCE_INPUT>
SSREEYFIGGG [GYPC_Y126_K124E]

>  <SYSTEM>
Hck (UniProt P08631)

>  <CLASS_NAME>
label 0

$$$$
>  <SEQUENCE_INPUT>
VNTTLYEKFTF [TEK_Y1108_YF]

>  <SYSTEM>
Hck (UniProt P08631)

>  <CLASS_NAME>
label 1

$$$$
>  <SEQUENCE_INPUT>
KSVSQYLEMDK [CAGE1_Y438]

>  <SYSTEM>
Hck (UniProt P08631)

>  <CLASS_NAME>
label 0

$$$$

Determine whether this sequence has phosphorylation enrichment no lower than 0.7: LRWREYQRQDF [PRKRIP1_Y90_R87W_YF]
label 1

Could you please find out whether SSFDIYHLSRE [KIR3DL2_Y253_YF] has phosphorylation enrichment that meets 0.7 or exceeds it?
label 1

Determine whether this sequence has phosphorylation enrichment no lower than 0.7: IVRSRYEDLED [VHL_Y185_L184R]
label 0

---

- SYSTEM: Fes (UniProt P07332)
- Sequence (P07332 whole entry, looked up): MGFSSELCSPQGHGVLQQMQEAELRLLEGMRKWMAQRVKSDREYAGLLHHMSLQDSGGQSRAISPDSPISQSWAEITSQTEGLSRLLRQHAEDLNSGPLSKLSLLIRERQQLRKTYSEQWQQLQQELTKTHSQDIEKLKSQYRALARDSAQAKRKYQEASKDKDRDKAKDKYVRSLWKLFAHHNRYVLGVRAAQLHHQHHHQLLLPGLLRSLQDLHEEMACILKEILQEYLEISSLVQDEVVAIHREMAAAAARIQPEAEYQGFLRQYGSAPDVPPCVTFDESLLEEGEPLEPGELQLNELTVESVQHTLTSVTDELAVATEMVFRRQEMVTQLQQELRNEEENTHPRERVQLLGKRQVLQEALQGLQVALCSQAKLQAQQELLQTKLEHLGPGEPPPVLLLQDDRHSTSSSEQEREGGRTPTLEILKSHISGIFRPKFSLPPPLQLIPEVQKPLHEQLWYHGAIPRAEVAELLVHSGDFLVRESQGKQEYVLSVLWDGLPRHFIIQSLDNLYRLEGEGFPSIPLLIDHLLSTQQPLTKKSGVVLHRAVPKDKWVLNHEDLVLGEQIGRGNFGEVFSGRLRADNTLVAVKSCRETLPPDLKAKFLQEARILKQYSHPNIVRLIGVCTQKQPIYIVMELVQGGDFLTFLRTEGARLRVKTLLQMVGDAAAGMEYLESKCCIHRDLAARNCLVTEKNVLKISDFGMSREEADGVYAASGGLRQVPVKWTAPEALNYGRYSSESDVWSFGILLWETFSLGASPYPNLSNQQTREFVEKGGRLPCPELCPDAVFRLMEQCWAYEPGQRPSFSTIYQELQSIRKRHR
- EXPERIMENTAL_DETAILS: phosphorylation enrichment, bacterial display (enrichment ratio); higher = better substrate or ligand; peptides without Tyr show the background
Please map values of phosphorylation enrichment to classes as shown: range 1 = under 0.7, range 2 = from 0.7 up to 1, range 3 = 1 and over

Here are 5 sequences together with their reported answers.
>  <SEQUENCE_INPUT>
RMDGKYACSFT [FLNB_Y704_T703K_YF]

>  <SYSTEM>
Fes (UniProt P07332)

>  <CLASS_NAME>
range 3

$$$$
>  <SEQUENCE_INPUT>
LNTFHYAGVSA [POLR2A_Y1109]

>  <SYSTEM>
Fes (UniProt P07332)

>  <CLASS_NAME>
range 2

$$$$
>  <SEQUENCE_INPUT>
IRQDHYESLKE [MTR_Y921]

>  <SYSTEM>
Fes (UniProt P07332)

>  <CLASS_NAME>
range 2

$$$$
>  <SEQUENCE_INPUT>
ASMAKYYASGI [ACADSB_Y372_E376G]

>  <SYSTEM>
Fes (UniProt P07332)

>  <CLASS_NAME>
range 1

$$$$
>  <SEQUENCE_INPUT>
DDPRTYQKFGF [OAS1_Y362_R361T_YF]

>  <SYSTEM>
Fes (UniProt P07332)

>  <CLASS_NAME>
range 2

$$$$

# bin label for ELTSKYRGGGG [HBA1_Y141_V136E]
range 1

Lab note: which band did LAAAGYDVKKN [H1-3_Y72_E75K] land in?
range 1

// bin(item) where item = IVLRSYPASGH [NID2_Y449]
range 2

Consider TTSQLYDAMPI [PDPK1_Y9_V12M] . To which phosphorylation enrichment class does it belong?
range 2

State the class of the sequence shown: ALCHFYKLNII [ETV6_Y402_R399C_YF]
range 3

For the record NTFENYWPFFQ [GATM_Y103_K102N_YF] , report the class its phosphorylation enrichment corresponds to.
range 3

# bin label for MSSHHYDFKKF [ZNF445_Y428_YF]
range 1

Please indicate the class for CTHDLYMFMRE [FGFR3_Y724_I726F] based on its phosphorylation enrichment.
range 3

Band of IYHLSYIHNCE [PDE6B_Y227_L228I] ?
range 3

Which class holds LGNIVYSSLCG [BCOR_Y90_P85L] ?
range 3

State the band of EVASVYESYQP [MAVS_Y92_Q93E]
range 3

---

- SYSTEM: Hck (UniProt P08631)
- EXPERIMENTAL_DETAILS: phosphorylation enrichment, bacterial display (enrichment ratio); higher = better substrate or ligand; peptides without Tyr show the background
Output T for phosphorylation enrichment not less than 0.5; output F otherwise.

>  <SEQUENCE_INPUT>
KFLVGYEMLAQ [GALT_Y339_M336L]

>  <CLASS_NAME>
F

$$$$
>  <SEQUENCE_INPUT>
ELTSKYRGGGG [HBA1_Y141_V136E]

>  <CLASS_NAME>
F

$$$$
>  <SEQUENCE_INPUT>
NDKLCYEVSSP [CDH13_Y66_R65C]

>  <CLASS_NAME>
T

$$$$
>  <SEQUENCE_INPUT>
VEKGSYSALLA [ABCC2_Y845]

>  <CLASS_NAME>
T

$$$$
>  <SEQUENCE_INPUT>
TGDRPYVCPFD [YY1_Y383]

>  <CLASS_NAME>
F

$$$$
>  <SEQUENCE_INPUT>
LSDGPYSSPFE [EPOR_Y485_N487S_YF]

>  <CLASS_NAME>
T

$$$$
>  <SEQUENCE_INPUT>
TRTEAYAVSSF

>  <CLASS_NAME>
F

$$$$
>  <SEQUENCE_INPUT>
ICRWVYPLTPE [EIF2B5_Y319_R315C]

>  <CLASS_NAME>
T

$$$$
>  <SEQUENCE_INPUT>
RLAKTYKTTLE [ALB_Y377_E378K]

>  <CLASS_NAME>
F

$$$$
>  <SEQUENCE_INPUT>
APQFTYAQGGQ [FLNA_Y1763_YF]

>  <CLASS_NAME>
F

$$$$

Does KLPFLYDDPFS [GPX2_Y127_P126L_YF] have a reported phosphorylation enrichment of at least 0.5?
T

Form field: phosphorylation enrichment at least 0.5? Entry: RRMLQYLTVND [PPFIBP2_Y663]
T

Kindly determine if phosphorylation enrichment recorded for EEKKKYFDAKI [CASP5_Y103_T106A_YF] is above or exactly 0.5.
F

Please tell me: is the sequence ARMTNCGLPRF [TSPAN12_Y138_Y138C_YF] at or over 0.5 in terms of phosphorylation enrichment?
F

Given FQRITYHNWRH [PDE6B_Y556_R552Q_YF] , state whether its phosphorylation enrichment is at least 0.5.
F

Does the sequence KDQGTYEDFVE [MYL6_Y86_YF] have recorded phosphorylation enrichment that is 0.5 or more?
T

Please tell me: is the sequence KASIMYPSNNC [CXCL11_Y52] at or over 0.5 in terms of phosphorylation enrichment?
F

// inclusive: phosphorylation enrichment at least 0.5? input: ATHSGYRLNDY [CLDN14_Y233]
F

Does phosphorylation enrichment meet or surpass 0.5 for SSPVPYLSPET [TJP1_Y931] ?
F

Does EKLQQYLAPGM [EPHB3_Y600_I601L] have a reported phosphorylation enrichment of at least 0.5?
F

I'd appreciate it if you could say whether TRDVNYGWIIR [MT-CYB_Y75] has phosphorylation enrichment at least equal to 0.5.
F

Decide: phosphorylation enrichment of KRLAVYQAGAR [APOE_Y180] >= 0.5?
F

Decide: phosphorylation enrichment of PIQLFYTRRNT [GHR_Y86] >= 0.5?
T

Does the reported phosphorylation enrichment for TNGFTYGSSHQ [MANEA_Y331] fall at or above the 0.5 mark?
F

Please indicate if the recorded phosphorylation enrichment for PLFSKYWPNHI [GREB1L_Y1560_R1558S_YF] meets or exceeds 0.5.
T

---

- SYSTEM: EPHB1 (UniProt P54762)
- Sequence (P54762 whole entry, looked up): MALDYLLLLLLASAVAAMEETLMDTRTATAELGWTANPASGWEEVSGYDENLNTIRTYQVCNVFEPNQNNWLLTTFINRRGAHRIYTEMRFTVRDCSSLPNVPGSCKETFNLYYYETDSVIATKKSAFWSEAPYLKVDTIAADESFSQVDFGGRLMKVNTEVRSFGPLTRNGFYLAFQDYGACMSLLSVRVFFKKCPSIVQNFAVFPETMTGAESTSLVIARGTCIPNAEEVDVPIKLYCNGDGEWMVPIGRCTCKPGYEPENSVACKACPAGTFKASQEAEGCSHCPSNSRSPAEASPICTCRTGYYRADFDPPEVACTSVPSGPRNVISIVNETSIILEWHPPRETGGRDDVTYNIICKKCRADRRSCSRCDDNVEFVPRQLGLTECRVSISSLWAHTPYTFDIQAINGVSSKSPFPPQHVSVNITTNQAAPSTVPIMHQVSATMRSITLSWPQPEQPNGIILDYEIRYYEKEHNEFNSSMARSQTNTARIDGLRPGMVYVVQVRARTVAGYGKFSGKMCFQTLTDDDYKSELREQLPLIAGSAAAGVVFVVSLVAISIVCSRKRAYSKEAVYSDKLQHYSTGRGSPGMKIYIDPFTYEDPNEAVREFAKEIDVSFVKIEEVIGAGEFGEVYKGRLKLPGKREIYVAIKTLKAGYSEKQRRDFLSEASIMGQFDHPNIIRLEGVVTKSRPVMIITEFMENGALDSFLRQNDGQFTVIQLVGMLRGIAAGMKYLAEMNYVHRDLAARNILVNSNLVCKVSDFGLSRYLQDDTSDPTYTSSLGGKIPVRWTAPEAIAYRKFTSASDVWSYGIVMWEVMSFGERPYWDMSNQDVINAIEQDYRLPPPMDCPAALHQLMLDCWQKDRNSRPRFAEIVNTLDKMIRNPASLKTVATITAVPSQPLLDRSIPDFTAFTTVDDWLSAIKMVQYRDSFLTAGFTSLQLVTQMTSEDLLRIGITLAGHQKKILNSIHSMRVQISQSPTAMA
- EXPERIMENTAL_DETAILS: phosphorylation enrichment, bacterial display (enrichment ratio); higher = better substrate or ligand; peptides without Tyr show the background
# maps each entry to its phosphorylation enrichment

>  <SEQUENCE_INPUT>
NRDNTYNPVSE [FGA_Y127_R129P]

>  <phosphorylation enrichment>
0.544

$$$$

Fill blank: measured phosphorylation enrichment of the sequence SLLTDCSPQLQ [OTC_Y345_Y345C] is ____.
0.567

Could you share which phosphorylation enrichment value was measured for RLAKTYKTTLE [ALB_Y377_E378K] ?
0.324

Tell me the measured phosphorylation enrichment of DLFRLYVCVKE [ARID1B_Y1091] , please.
0.697

---

- Test system: c-Src
- EXPERIMENTAL_DETAILS: phosphorylation enrichment, bacterial display (enrichment ratio); higher = better substrate or ligand; peptides without Tyr show the background
phosphorylation enrichment vs 0.9: at or above is y, below is n.

The following sequences have reported results that may help.
>  <SEQUENCE_INPUT>
ESSKAYERALS [TTC37_Y1074]

>  <CLASS_NAME>
n

$$$$
>  <SEQUENCE_INPUT>
FKELVYETVRV [FSHB_Y76]

>  <CLASS_NAME>
y

$$$$
>  <SEQUENCE_INPUT>
PSQRRYLYYYS [PTEN_Y174_V175L]

>  <CLASS_NAME>
n

$$$$
>  <SEQUENCE_INPUT>
DGYTDYAEFAK [MCFD2_Y138_I136T]

>  <CLASS_NAME>
y

$$$$
>  <SEQUENCE_INPUT>
WEQELYSQLVF [WAS_Y102_YF]

>  <CLASS_NAME>
y

$$$$

Answer whether phosphorylation enrichment of ELPEKYSQNIF [PKP2_Y626_YF] is greater than or equal to 0.9.
n

Does RRGMPYGGCGD [TGM1_Y312_R315C] have a reported phosphorylation enrichment of at least 0.9?
n
